Origin of values: patent US12384776B2

molecular target: Nanoluciferase-BRD9 fusion protein (3×FLAG-NLuc-BRD9) in SYO-1 cells (Homo sapiens (Human), UniProt Q9H8M2); assay: SYO1 BRD9 NanoLuc degradation assay; format: cell-based; conditions: SYO-1 cells expressing 3×FLAG-NLuc-BRD9, 6 hours incubation, top dose 1 μM
Sequence (Q9H8M2 whole entry, the tested form may be a part): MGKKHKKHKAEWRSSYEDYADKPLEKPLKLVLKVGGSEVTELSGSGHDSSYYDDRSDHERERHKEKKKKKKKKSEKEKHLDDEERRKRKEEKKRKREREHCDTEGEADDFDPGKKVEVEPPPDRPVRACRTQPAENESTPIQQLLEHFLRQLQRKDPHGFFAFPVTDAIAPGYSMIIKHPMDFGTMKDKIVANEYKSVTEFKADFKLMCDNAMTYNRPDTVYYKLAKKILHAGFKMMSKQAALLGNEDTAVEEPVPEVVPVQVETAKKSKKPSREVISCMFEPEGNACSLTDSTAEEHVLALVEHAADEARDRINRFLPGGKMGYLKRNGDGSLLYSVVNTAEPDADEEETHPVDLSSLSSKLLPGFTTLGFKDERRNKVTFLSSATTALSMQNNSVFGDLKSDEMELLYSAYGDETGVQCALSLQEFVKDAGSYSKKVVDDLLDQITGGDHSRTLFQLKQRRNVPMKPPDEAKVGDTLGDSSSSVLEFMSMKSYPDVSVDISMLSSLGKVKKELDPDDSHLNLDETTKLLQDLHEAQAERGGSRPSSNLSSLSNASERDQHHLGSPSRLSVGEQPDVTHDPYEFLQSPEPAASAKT
pIC50: −log10 of the molar value.
Record form. Attribute: pIC50. Fill in for each entry.

[
  {
    "MOLECULE": "CNC(=O)N1CCc2c(-c3cc(OC)c(CN4CCC(CCN5CC6CN(c7ccc8c(c7)C(=O)N(C7CCC(=O)NC7=O)C8=O)CC6C5)CC4)c(OC)c3)cn(C)c(=O)c2C1 (stereo not drawn)",
    "pIC50": "> 8.00"
  },
  {
    "MOLECULE": "COc1cc(-c2cn(C)c(=O)c3c2CCN(C(=O)NCCCN2CCC4(CC2)CN(c2ccc5c(c2)C(=O)N(C2CCC(=O)NC2=O)C5=O)C4)C3)cc(OC)c1CN(C)C (stereo not drawn)",
    "pIC50": "> 8.00"
  },
  {
    "MOLECULE": "CNC(=O)N1CCc2c(-c3cc(CN4CCC(CCN5CCN(c6ccc7c(c6)C(=O)N(C6CCC(=O)NC6=O)C7=O)CC5)CC4)cc(OC)c3)cn(C)c(=O)c2C1 (stereo not drawn)",
    "pIC50": "≤ 6.00"
  },
  {
    "MOLECULE": "COc1cc(-c2cn(C)c(=O)c3c2CCN(C(=O)NC2CCC4CN(CCOc5ccc6c(c5)C(=O)N(C5CCC(=O)NC5=O)C6=O)CC42)C3)cc(OC)c1CN(C)C (stereo not drawn)",
    "pIC50": "7.00 to 8.00"
  }
]

Count: 2. Required value per item: pIC50.
1. CNC(=O)N1CCc2c(-c3cc(OC)c(CN4CCN(CCC5CCN(c6ccc7c(c6)C(=O)N(C6CCC(=O)NC6=O)C7=O)CC5)CC4(C)C)c(OC)c3)cn(C)c(=O)c2C1 (stereo not drawn)
2. COc1cc(-c2cn(C)c(=O)c3c2CCN(C(=O)NCCCN2CC4(CCN4c4ccc5c(c4)C(=O)N(C4CCC(=O)NC4=O)C5=O)C2)C3)cc(OC)c1CN(C)C (stereo not drawn)

1. > 8.00
2. 6.00 to 7.00

----------
Molecular target: BRD9 bromodomain (Homo sapiens (Human), UniProt Q9H8M2)
Assay: BRD9 bromodomain TR-FRET competition binding assay
Procedure: Procedure: His-Flag-BRD9 (P133-K239; Swiss Prot Q9H8M2; SEQ ID NO:1 mgsshhhhhhenlyfq/gdykddddkgslevlfqg/[…] […]) was cloned, expressed, purified, and then treated with TEV protease. Cleaved His tag was removed by purification. The binding of a biotinylated small molecule ligand of BRD9 was assessed via the LANCE® TR-FRET platform (PerkinElmer), and the compounds were assayed for inhibitory activity against this interaction. […]
VALUE TYPE: IC50

[
  {
    "MOLECULE": "COc1cc(-c2cn(C)c(=O)c3c2CCN(C(=O)NCCCCCOc2ccc4c(c2)C(=O)N(C2CCC(=O)NC2=O)C4=O)C3)cc(OC)c1CN(C)C (stereo not drawn) [Compound D22, formic acid]",
    "IC50": "< 10 nM"
  },
  {
    "MOLECULE": "CCC(=O)N1CCc2c(-c3cc(OC)c(CN(C)C)c(OC)c3)cn(C)c(=O)c2C1 [Compound B12]",
    "IC50": "> 1000 nM"
  },
  {
    "MOLECULE": "CNC(=O)N1CCc2c(-c3cc(OC)c(CN4CC(NC(=O)CCCCCOc5cccc6c5C(=O)N(C5CCC(=O)NC5=O)C6=O)C4)cc3OC)cn(C)c(=O)c2C1 (stereo not drawn) [Compound D15, formic acid]",
    "IC50": "> 10 nM"
  }
]

Count: 5. Required value per item: IC50.
1. CCNC(=O)N1CCc2c(-c3cc(OC)c(CN(C)C)c(OC)c3)cn(C)c(=O)c2C1 [Compound B5]
2. COc1cc(-c2cn(C)c(=O)c3c2CCN(C(=O)NCCOCCNc2ccc4c(c2)C(=O)N(C2CCC(=O)NC2=O)C4=O)C3)cc(OC)c1CN(C)C (stereo not drawn) [Compound D21, formic acid]
3. COc1cc(-c2cn(C)c(=O)c3c2CCN(C(=O)CCCCCOc2cccc4c2C(=O)N(C2CCC(=O)NC2=O)C4=O)C3)cc(OC)c1CN(C)C (stereo not drawn) [Compound D20]
4. CCCCNS(=O)(=O)N1CCc2c(-c3cc(OC)c(CN(C)C)c(OC)c3)cn(C)c(=O)c2C1 [Compound B19]
5. COc1cc(-c2cn(C)c(=O)c3c2CCN(C(C)=O)C3)cc(OC)c1CN(C)C [Compound B14]

< 10 nM
> 10 nM
> 1000 nM
> 10 nM
> 1000 nM

Suppose we examine the molecule COc1cc(-c2cn(C)c(=O)c3c2CCN(C(=O)N(C)C)C3)cc(OC)c1CN(C)C [Compound B6] ; what IC50 value has been reported? > 100 nM
